tested on: CEM cells HIV-1 protection, formazan growth assay; assay: NCI AIDS Antiviral Assay; conditions: measured here: growth of uninfected CEM cells
ASSAY ENDPOINT: IC50

The following compounds have reported results that may help.
COMPOUND	ASSAY ENDPOINT	MEASUREMENT
CC(C)CCC(=O)c1ccoc1	IC50	> 1510 µM
Cc1cccc2c1CC(C1OC(=O)c3ccccc31)C2=O (configuration not stated)	IC50	> 100 µM
COC1C(/C(=N\O)n2cnc3c(Cl)ncnc32)OC2OC(C)(C)OC21 (configuration not stated)	IC50	> 100 µM
CC(=O)/C=C/c1ccco1	IC50	> 26.3 µM
CC1(C)COC(=O)N1	IC50	> 1550 µM

Lab note: need IC50 for CCCN=C(NC(=O)c1ccc(Cl)cc1)SC on CEM cells HIV-1 protection, formazan growth assay, anyone have it?
> 200 µM

Lab note: need IC50 for Clc1ccc(C2=Nc3ccccc3SC(c3cccs3)C2)cc1 (configuration not stated) on CEM cells HIV-1 protection, formazan growth assay, anyone have it?
> 7.59 µM

###

Consider the following compounds and their measured pIC50 readings.
system: CEM cells HIV-1 protection, formazan growth assay; assay: NCI AIDS Antiviral Assay; conditions: measured here: growth of uninfected CEM cells
pIC50: −log10 of the molar value.

The following compounds have reported results that may help.
COMPOUND	pIC50
Nc1cccc2c1C(=O)c1cccc(NC(=O)c3ccc4c5c(nsc35)-c3ccccc3C4=O)c1C2=O	< 4.81
NC(=O)c1ncn(C2C=CC(CP(=O)(O)O)C2)c1N (configuration not stated)	< 3.70
NCC#CCNCCCN1CC1	< 3.70
CON(C)c1nc(Cl)nc(N(C)OC)n1	< 3.70
N#C/C=C/c1cccc(F)c1	< 4.31
COc1cc(Nc2nc3ccc(C(F)(F)F)cc3nc2-c2ccccc2)cc(OC)c1OC	< 4.68

Lab note: need pIC50 for CCn1c(=O)c2ncnnc2n(CC)c1=O on CEM cells HIV-1 protection, formazan growth assay, anyone have it?
< 3.70

Lab note: need pIC50 for CCOC(=O)C1=C(C)OC(=O)[C@@]2(OC)C=C(Cl)[C@@]12C on CEM cells HIV-1 protection, formazan growth assay, anyone have it?
< 3.70

###

tested on: CEM cells HIV-1 protection, formazan growth assay; assay: NCI AIDS Antiviral Assay; conditions: measured here: growth of uninfected CEM cells
pIC50: −log10 of the molar value.
Consider the following compounds and their measured pIC50 readings.

The following compounds have reported results that may help.
COMPOUND	STUDY SYSTEM	MEASUREMENT
O=C(O)c1ccc(CSc2ccc(Cl)cc2)cc1	CEM cells HIV-1 protection, formazan growth assay	< 4.45
Cc1ccc2cc1NC(=O)N1CCN(CC1)C(=O)Nc1cc(ccc1C)NC(=O)N1CCN(CC1)C(=O)N2	CEM cells HIV-1 protection, formazan growth assay	< 5.42
CCCCCCCCCCCCCCCCCC(=O)OCC(C[As](=O)(O)O)OC(=O)CCCCCCCCCCCCCCCCC (stereo not given)	CEM cells HIV-1 protection, formazan growth assay	< 4.75
Cc1nc2c(=O)[nH]c(=O)n(C)c2[nH]c1=O	CEM cells HIV-1 protection, formazan growth assay	< 4.46

Consider the record given below.
# input compound: O=C1C2=C(c3ccccc31)C(c1ccc(Cl)cc1)N1C(=O)CCSC1=N2 (stereo not given) ; wanted: its pIC50
< 4.31

###

Consider the following compounds and their measured IC50 readings.
tested on: CEM cells HIV-1 protection, formazan growth assay; experiment: NCI AIDS Antiviral Assay; details: measured here: growth of uninfected CEM cells

The following compounds have reported results that may help.
COMPOUND	IC50
Cc1ccccc1NC(=O)C(=O)CC(=O)c1c(C)n([O-])c2ccccc2[n+]1=O	> 3.8 µM
CC[C@@]12C=CC(=S)N(CCSc3ccccc3)[C@@H]1c1c(n(S(=O)(=O)c3ccc(OC)cc3)c3ccccc13)CC2	> 126 µM
O=C(/C=C\c1cccc2ccccc12)c1cccs1	> 3.98 µM
CC(=O)SC1CC(=O)OC1=O (stereo not given)	> 200 µM

# input compound: O=C(CCC(=O)Nc1ccccc1C(F)(F)F)N/N=C1\C(=N\NC(=O)CCC(=O)Nc2ccccc2C(F)(F)F)C(c2ccc3c(c2)OCO3)Oc2ccccc21 (stereo not given) ; wanted: its IC50
> 23.4 µM

###

Consider the following molecules and their measured pEC50 readings.
test system: CEM cells HIV-1 protection, formazan growth assay; experiment: NCI AIDS Antiviral Assay
pEC50: −log10 of the molar value.

The following molecules have reported results that may help.
MOLECULE	pEC50
CCOC(=O)C(NC(=O)c1cccc(Cl)c1)(Nc1ccc(S(=O)(=O)Nc2cc(C)nc(C)n2)cc1)C(F)(F)F (stereo not drawn)	< 3.70
c1cc(C2O[C@H]3CCCN3[C@@H]2c2ccncc2)ccn1 (stereo partly drawn)	< 3.03
Cn1c2ccccc2c2ccc3c(c21)C(=O)C=CC3=O	< 4.00
CCOC(=O)C(NC(=O)CC(C)C)(NC(C)C)C(F)(F)F (stereo not drawn)	< 3.70
O=C(/C=C/c1ccc(O)c(O)c1)OCCCOC(=O)/C=C/c1ccc(O)c(O)c1	< 4.00

# input molecule: O=c1[nH]cc(/C=N\OCCP(=O)(O)O)c(=O)[nH]1 ; wanted: its pEC50
< 3.70

# input molecule: CC(=O)Nc1ccc(S(=O)(=O)N/N=C(\C)CN2C(=O)c3ccccc3C2=O)cc1 ; wanted: its pEC50
< 3.64

# input molecule: CCCc1cc(=O)oc2c3c(cc(OC(C)CC)c12)O[C@H](C)[C@@H](C)C3=O (stereo partly drawn) ; wanted: its pEC50
< 4.22

# input molecule: COc1cc(CNC(=O)CCCCCCCCCCSSCCCCCCCCCCC(=O)NCc2ccc(O)c(OC)c2)ccc1O ; wanted: its pEC50
< 3.70

# input molecule: Cc1sc2nc3n(c(=O)c2c1C)N=C(c1ccccc1)CS3 ; wanted: its pEC50
< 3.70

# input molecule: CC(=O)OCC1OC(SC2=N/C(=C\c3cc4c(=O)c5ccccc5sc4s3)C(=O)N2c2ccccc2)C(OC(C)=O)C(OC(C)=O)C1OC(C)=O (stereo not drawn) ; wanted: its pEC50
< 3.70

# input molecule: O=c1[nH]c2cc(Cl)ccc2nc1/C(=N/Nc1ccccc1)C(O)c1ccco1 (stereo not drawn) ; wanted: its pEC50
< 3.24

# input molecule: CC(=O)NC1C(OCc2ccccc2)OC(COC(=O)CCCCCCCCCCNC(=O)CCNc2ccc([N+](=O)[O-])c3[nH]c4ccc(O)cc4c(=O)c23)C(O)C1OC(C)C(=O)N[C@H](C(=O)N[C@H](CCC(=O)O)C(N)=O)C(C)C (stereo partly drawn) ; wanted: its pEC50
< 3.65

# input molecule: Cc1ccc(N2C(=O)/C(=C3\Sc4c(nc(C)[nH]c4=O)N3c3ccccc3)SC2=S)cc1 ; wanted: its pEC50
< 5.39

# input molecule: C1=C(N2CCOCC2)/C(=C2\SC(=Nc3ccccc3)C(=Nc3ccccc3)N2c2ccccc2)CC1 ; wanted: its pEC50
< 3.70

# input molecule: CC1COC(C)(C)P(c2ccccc2)C1 (stereo not drawn) ; wanted: its pEC50
< 2.95

# input molecule: CCOP(=O)(Cc1c(Cl)c(Cl)c(CP(=O)(OCC)OCC)c(Cl)c1Cl)OCC ; wanted: its pEC50
< 3.70

# input molecule: COC1(O)C(=O)c2ccccc2OC1(OC)c1ccccc1 (stereo not drawn) ; wanted: its pEC50
< 3.70

# input molecule: NC(CSS(=O)(=O)O)=NCCCc1nc2ccccc2[nH]1 ; wanted: its pEC50
< 3.70

# input molecule: CCCCCCCCCCCCCCCCCC(=O)OCC(C[As](=O)(O)O)OC(=O)CCCCCCCCCCCCCCCCC (stereo not drawn) ; wanted: its pEC50
< 4.75

###

Consider the following compounds and their measured IC50 readings.
tested on: CEM cells HIV-1 protection, formazan growth assay; test: NCI AIDS Antiviral Assay; conditions: measured here: growth of uninfected CEM cells

COMPOUND	STUDY SYSTEM	IC50
O=C1c2cccc3cccc(c23)C(=O)N1C(Cc1ccccc1)c1ccccc1 (stereo not drawn)	CEM cells HIV-1 protection, formazan growth assay	> 200 µM
CCCC[P+](CCCC)(CCCC)C(C(=O)OC)C(C(=O)OC)=C1SC(C(=O)OC)=C(C(=O)OC)S1 (stereo not drawn)	CEM cells HIV-1 protection, formazan growth assay	> 200 µM
CS(=O)(=O)N1CC(CCl)c2ccc([N+](=O)[O-])cc21 (stereo not drawn)	CEM cells HIV-1 protection, formazan growth assay	> 200 µM

# input compound: OCC1OCOC2COCOC12 (stereo not drawn) ; wanted: its IC50
> 200 µM

# input compound: Nc1nc(=S)[nH]c(C(=O)Nc2nccs2)c1-c1ccccc1 ; wanted: its IC50
> 21.9 µM

# input compound: COc1ccc(C(=O)c2ccccc2O)c(O)c1 ; wanted: its IC50
> 100 µM

# input compound: Cc1cccc(NC(=S)Nc2ccc([N+](=O)[O-])cc2)n1 ; wanted: its IC50
> 200 µM

# input compound: CC(=O)Nc1cc2ccc(C)nc2c2nc(C)ccc12 ; wanted: its IC50
> 200 µM
